Target: Aspartate--tRNA(Asp/Asn) ligase (Mycobacterium tuberculosis (strain ATCC 25618 / H37Rv)) (UniProt P9WFW3)
Sequence (whole entry): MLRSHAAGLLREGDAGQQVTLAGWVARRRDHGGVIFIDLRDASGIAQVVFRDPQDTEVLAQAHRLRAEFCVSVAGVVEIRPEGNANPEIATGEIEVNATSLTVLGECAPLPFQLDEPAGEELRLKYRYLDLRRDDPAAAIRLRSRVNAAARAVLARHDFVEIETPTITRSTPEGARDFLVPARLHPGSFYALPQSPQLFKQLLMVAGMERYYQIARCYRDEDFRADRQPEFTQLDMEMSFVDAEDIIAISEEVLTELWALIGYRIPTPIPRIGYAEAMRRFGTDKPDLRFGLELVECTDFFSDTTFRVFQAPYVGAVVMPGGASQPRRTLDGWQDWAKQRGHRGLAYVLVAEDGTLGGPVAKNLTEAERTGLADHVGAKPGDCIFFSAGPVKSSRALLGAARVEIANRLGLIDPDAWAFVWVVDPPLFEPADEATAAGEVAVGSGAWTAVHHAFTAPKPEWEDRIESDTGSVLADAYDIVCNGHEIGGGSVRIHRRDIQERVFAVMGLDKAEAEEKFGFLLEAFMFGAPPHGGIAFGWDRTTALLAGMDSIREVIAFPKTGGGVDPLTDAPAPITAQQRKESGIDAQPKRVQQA
Assay: Assay for Asp RNA synthetase-1 from Mycobacterium tuberculosis
Assay type: functional
Parameters: scale not given: in the data most compounds retested in dose-response had high values
Details: 30 µM
Listed next: entries and their corresponding Percent Effect.
Your answer should be a plain number; it is taken to be in %.

Example compounds with recorded Percent Effect:
O=C(c1ccc2c(c1)CCCC2)N1CCOCC1c1ncon1 (centres undefined)
-2.09
Cc1ccc(-c2cc(CN3CCOC(Cn4cncn4)C3)on2)cc1 (centres undefined)
1.83
Cc1ccc(CN2C[C@@H]3COC[C@H](C(=O)N4CCCCO4)[C@@H]3C2)o1
1.57
COc1cccc(CN2CCC3(CCN(C(=O)[C@H]4CCCO4)CC3)C2)c1
2.09
CCc1ncc(C(=O)N2CCOCC2c2c(C)n[nH]c2C)s1 (centres undefined)
2.97

The compound NC(=O)C1CCC(NC(=O)COc2ccc(Cl)c(Cl)c2)CC1 (centres undefined) showed Percent Effect equal to 3.91

The compound c1ccc2sc(CN3CCOC(Cn4cncn4)C3)nc2c1 (centres undefined) showed Percent Effect equal to -5.32

The compound Cc1cc(C)n(CC2CCCN2C(=O)c2ccc3c(c2)OCO3)n1 (centres undefined) showed Percent Effect equal to -1.99

The compound CC(C)Nc1ncc(CN2C[C@@H](CN3CCC(O)CC3)[C@@H](CO)C2)cn1 showed Percent Effect equal to -1.99

The compound O=C(CC1CC1)N1CCC2(CC1)CN(c1ncccn1)CCO2 showed Percent Effect equal to -1.87

The compound CCC(CNC(=O)c1cc(OC)ccc1Br)N1CCc2ccccc2C1 (centres undefined) showed Percent Effect equal to 4.47

The compound Cc1c(C(=O)NCC(C)C)nnn1-c1cccc2c1CCN(C)C2 showed Percent Effect equal to 0.928

The compound CC(C)c1cc(C(=O)N(C)Cc2cccc3ncccc23)n(C)n1 showed Percent Effect equal to -4.72

The compound COCC(=O)NC(C)Cc1cccc(OC)c1 (centres undefined) showed Percent Effect equal to -2.52

The compound O=C(C1CC1)N1CCCC1C1CCN(Cc2ccccc2)CC1 (centres undefined) showed Percent Effect equal to -4.34

The compound CC(C)Oc1ccccc1CNC(=O)N1CCC(n2cncn2)CC1 showed Percent Effect equal to -5.72
